- Test system: PANC-1 cells
- procedure.summary: cell viability assay in PANC-1 cells (compound alone, + 100 ng/ml TNFa, + 300 ng/ml TRAIL)
- Format: cell-based
- study.conditions: with 100 ng/ml TNFa; Tables 6-10; read-out: IC50 (μM) in cell viability assay in PANC-1 cells: Compound + 100 ng/ml TNFa
quantity.kind: IC50 (µM)

See these solved cases before continuing.
# molecule, quantity.kind, quantitative.readout
measured = [
    ("CN[C@@H](C)C(=O)N[C@H]1CCN(C(=O)c2ccc(C(=O)N[C@H]3C[C@@H](C(=O)N[C@@H]4CCCc5ccccc54)N(C(=O)[C@@H](NC(=O)[C@H](C)NC)C(C)(C)C)C3)cc2)C1", "IC50", 0.62),
    ("CC[C@H](NC(=O)[C@H](C)NC)C(=O)N[C@@H](CCNC(=O)c1cccc(C(=O)N[C@H]2C[C@@H](C(=O)N[C@@H]3CCCc4ccccc43)N(C(=O)[C@@H](NC(=O)[C@H](C)NC)C(C)(C)C)C2)c1)C(=O)N[C@H](C)c1ccccc1", "IC50", 0.035),
    ("CN[C@@H](C)C(=O)N[C@@H](CCC(=O)Nc1ccc2c(c1)Cc1cc(NC(=O)CC[C@H](NC(=O)[C@H](C)NC)C(=O)N3CCC[C@H]3C(=O)N[C@@H]3CCCc4ccccc43)ccc1-2)C(=O)N1CCC[C@H]1C(=O)N[C@@H]1CCCc2ccccc21", "IC50", 0.02),
]

P. CN[C@@H](C)C(=O)N[C@H](C(=O)N1C[C@@H](NC(=O)c2cccc(C(=O)N[C@H]3C[C@@H](C(=O)NCc4cccc5[nH]ccc45)N(C(=O)[C@@H](NC(=O)[C@H](C)NC)C(C)(C)C)C3)c2)C[C@H]1C(=O)NCc1cccc2[nH]ccc12)C(C)(C)C
Q. CN[C@@H](C)C(=O)N[C@@H](CC(=O)NCC[C@H](NC(=O)[C@@H](NC(=O)[C@H](C)NC)C(C)(C)C)C(=O)N[C@@H]1CCCc2ccccc21)C(=O)N1CCC[C@H]1C(=O)N[C@@H]1CCCc2ccccc21
R. CN[C@@H](C)C(=O)NC(C(=O)N[C@@H](CCC(=O)NCCc1cn([C@H]2C[C@@H](C(=O)N[C@@H]3CCCc4ccccc43)N(C(=O)[C@@H](NC(=O)[C@H](C)NC)C(C)(C)C)C2)nn1)C(=O)N[C@H](C)C(C)C)C(C)C (some centres unmarked)
S. CN[C@@H](C)C(=O)N[C@@H](C)C(=O)N1C[C@@H](NC(=O)c2cccc(C(=O)N[C@H]3C[C@@H](C(=O)N[C@@H]4CCCc5ccccc54)N(C(=O)[C@@H](NC(=O)[C@H](C)NC)C(C)(C)C)C3)c2)C[C@H]1C(=O)N[C@H](C)c1ccccc1
Asked: Let's sort these by IC50, smallest first. Go ahead? Form entry: labels listed in requested order.
Given back: S, Q, P, R

---

- System: PANC-1 cells
- procedure.summary: cell viability assay in PANC-1 cells (compound alone, + 100 ng/ml TNFa, + 300 ng/ml TRAIL)
- Assay type: cell-based
- study.conditions: with 100 ng/ml TNFa; Tables 6-10; read-out: IC50 (μM) in cell viability assay in PANC-1 cells: Compound + 100 ng/ml TNFa
quantity.kind: IC50 (µM)

# compound, target.or.test.system, IC50, µM
data = [
    ("CCC1(NC(=O)[C@@H]2C[C@H](NC(=O)c3cc(C(=O)N[C@H]4C[C@@H](C(=O)NC5(CC)CCCc6ccccc65)N(C(=O)[C@@H](NC(=O)[C@H](C)NC)C(C)(C)C)C4)[nH]n3)CN2C(=O)[C@@H](NC(=O)[C@H](C)NC)C(C)(C)C)CCCc2ccccc21 (stereo partly drawn)", "PANC-1 cells", 0.046),
]

P. CN[C@@H](C)C(=O)N[C@@H](CCCCNC(=O)c1cccc(C(=O)N[C@H]2C[C@@H](C(=O)N[C@@H]3CCCc4ccccc43)N(C(=O)[C@@H](NC(=O)[C@H](C)NC)C(C)(C)C)C2)c1)C(=O)N1CCC[C@H]1C(=O)NC(c1ccccc1)c1ccccc1
Q. CNC(C)C(=O)Nc1nc(-c2ccccc2)c(C(=O)NC[C@@H](NC(=O)[C@@H]2CCCN2C(=O)[C@@H](NC(=O)[C@H](C)NC)C(C)(C)C)c2ccccc2)s1 (stereo partly drawn)
R. CN[C@@H](C)C(=O)N[C@H](C(=O)N[C@@H](CCNC(=O)c1cccc(C(=O)N[C@H]2C[C@@H](C(=O)N[C@@H]3CCCc4ccccc43)N(C(=O)[C@@H](NC(=O)[C@H](C)NC)C(C)(C)C)C2)c1)C(=O)N[C@H](C)c1ccccc1)C(C)C
Asked: // ranking: key=IC50, reverse=True Form entry: labels listed in requested order.
Given back: Q, P, R
(Q: 0.659 µM, P: 0.027 µM, R: 0.0163 µM)

a. CN[C@@H](C)C(=O)N[C@H](C(=O)N1C[C@@H](NC(=O)c2cccc(C(=O)N[C@H]3C[C@@H](C(=O)NCc4ccc(OC)c(O)c4)N(C(=O)[C@@H](NC(=O)[C@H](C)NC)C(C)(C)C)C3)c2)C[C@H]1C(=O)NCc1ccc(OC)c(O)c1)C(C)(C)C
b. CN[C@@H](C)C(=O)N[C@H](C(=O)N1C[C@@H](NC(=O)c2cccc(C(=O)N[C@H]3C[C@@H](C(=O)N[C@H](C)C4OCCCO4)N(C(=O)[C@@H](NC(=O)[C@H](C)NC)C(C)(C)C)C3)c2)C[C@H]1C(=O)N[C@H](C)C1OCCCO1)C(C)(C)C
Asked: Parameter metric = IC50. Return the lower-valued option from a and b . // caller expects the label of the chosen entry
Given back: b
(b: 0.466 µM, a: 0.706 µM)

Where these numbers come from: patent US20130344026A1
